Experiment: inhibitors of Toxoplasma growth in IFN-γ-primed HeLa – cell-based, ME49Luc, luciferase, 72 h, dose response (AID 1259418)
Settings: T. gondii ME49Luc in IFN-y HeLa, active compounds read low, -100% = high-dose IFN-γ control wells; at 19.5 µM unless noted
About 840 (25%) of roughly 3,400 compounds were called active. Inconclusive results (about 11%) are left out. These entries were drawn from the full list. Entries with a potency or affinity are not part of this list.
OUTCOME_MEASURE: max activity

{"COMPOUND": "CCc1ccc(S(=O)(=O)N2CCC3(CC2)NCCN=C3NCc2cccc(OC)c2)cc1", "max activity": "-9.5% [at 0.68 µM] (inactive)"}
{"COMPOUND": "COc1ccccc1CCC(=O)N1CCC[C@@H]1C(=O)NCCc1csc(-c2ccccc2)n1", "max activity": "-10.5% (inactive)"}
{"COMPOUND": "COc1cccc(NC(=O)CCC2Nc3c4ccccc4nc(=S)n3C2=O)c1 (stereo not given)", "max activity": "16.8% [at 0.68 µM] (inactive)"}
{"COMPOUND": "COc1ccc(-c2nc3c(s2)CN(C(=O)Nc2ccc(C)cc2Cl)CC3)cc1OC", "max activity": "-9.18% [at 0.35 µM] (inactive)"}
{"COMPOUND": "COc1ccc(-c2nc(Nc3cccc(C)c3)c3ccccc3n2)cc1", "max activity": "-18.2% [at 0.16 µM] (inactive)"}

Need max activity of `O=C(Nc1ccc(-c2nc(-c3ccccc3)co2)cc1)c1ccc(Br)o1` , thanks.
25.6% (inactive)

Need max activity of `Cc1cccc(C(=O)N2CCC3(CC2)Nc2ccc(C)c(C)c2-n2cccc23)c1` , thanks.
11.2% [at 0.68 µM] (inactive)

Need max activity of CN(C)CCN1CCC2(CCCN(C(=O)C3CCOC3)C2)C1=O (stereo not given) , thanks.
39.4% (inactive)

Need max activity of `COc1ccc(-c2nc3c(s2)CN(C(=O)Nc2ccc(Cl)cc2)CC3)cc1OC` , thanks.
10.2% [at 0.16 µM] (inactive)

Need max activity of `CCOC(=O)C(=O)Nc1ccc(-c2nc(-c3ccccc3)co2)cc1` , thanks.
10.7% [at 5 µM] (inactive)

###

Assay: inhibitors of Toxoplasma growth in IFN-γ-primed HeLa – cell-based, ME49Luc, luciferase, 72 h, dose response (AID 1259418)
Details: T. gondii ME49Luc in IFN-y HeLa, active compounds read low, -100% = high-dose IFN-γ control wells; at 19.5 µM unless noted
About 840 (25%) of roughly 3,400 compounds were called active. Roughly 11% stayed inconclusive and do not appear here. Only a sample is shown. Measured potencies and affinities stand elsewhere.
The following compounds are shown together with reported max activity values.

Need max activity of `CCOc1ccccc1C(=O)N1CCC2(CC1)Nc1cc(OC)ccc1-n1cccc12` , thanks.
12% [at 2.6 µM] (inactive)

Need max activity of `COc1ccc(-c2nc(Nc3cc(Cl)c(OC)cc3OC)c3ccccc3n2)cc1` , thanks.
18.3% (inactive)

Need max activity of COc1cccc(-c2ccc(C3[C@H]4CNC[C@@H]3N4C(=O)NC3CCCCC3)cc2)c1 (stereo not given in full) , thanks.
32.8% [at 10 µM] (inactive)

Need max activity of `O=C(NCCc1csc(-c2ccccc2)n1)[C@H]1CCCN1C(=O)c1cccc(Cl)c1` , thanks.
-10.8% [at 0.35 µM] (inactive)

Need max activity of `Cc1ccc2c(c1C)-n1cccc1C1(CCN(C(=O)c3cccc(F)c3)CC1)N2` , thanks.
-11.1% [at 0.35 µM] (inactive)

Need max activity of `Cc1ccccc1C(=O)N1CCC2(CC1)Nc1ccc(Cl)cc1-n1cccc12` , thanks.
-3.44% (inactive)
